- target_or_system: HIF-1α (Homo sapiens)
- Construct: endogenous in cells
- Sequence (Q16665 whole entry): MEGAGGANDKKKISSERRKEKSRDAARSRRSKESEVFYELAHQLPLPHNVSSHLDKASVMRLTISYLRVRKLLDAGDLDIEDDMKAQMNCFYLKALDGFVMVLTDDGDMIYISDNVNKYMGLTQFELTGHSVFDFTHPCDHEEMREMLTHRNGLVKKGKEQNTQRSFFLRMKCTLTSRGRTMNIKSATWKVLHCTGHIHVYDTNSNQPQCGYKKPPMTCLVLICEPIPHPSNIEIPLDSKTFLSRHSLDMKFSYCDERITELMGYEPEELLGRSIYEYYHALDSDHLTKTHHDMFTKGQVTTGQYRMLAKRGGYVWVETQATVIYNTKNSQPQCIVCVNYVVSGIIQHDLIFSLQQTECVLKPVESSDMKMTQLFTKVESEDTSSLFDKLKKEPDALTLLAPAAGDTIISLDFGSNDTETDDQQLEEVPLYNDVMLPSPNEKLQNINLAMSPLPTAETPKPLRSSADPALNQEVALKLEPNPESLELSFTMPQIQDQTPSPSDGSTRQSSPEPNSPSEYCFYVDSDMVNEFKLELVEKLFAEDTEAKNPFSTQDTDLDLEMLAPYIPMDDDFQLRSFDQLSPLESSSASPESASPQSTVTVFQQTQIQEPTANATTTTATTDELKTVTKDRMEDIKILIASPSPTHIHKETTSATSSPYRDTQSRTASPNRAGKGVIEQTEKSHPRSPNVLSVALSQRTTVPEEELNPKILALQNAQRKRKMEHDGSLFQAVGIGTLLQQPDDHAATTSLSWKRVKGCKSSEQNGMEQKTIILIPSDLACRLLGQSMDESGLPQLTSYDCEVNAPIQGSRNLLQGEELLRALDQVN
- test_method_notes: Immunoblot of HIF-1α accumulation in hypoxic MIO-M1 cells
- settings: hypoxia 4 hours, quantitation of immunoblots, read-out: IC50 of HIF-1α protein accumulation

{"columns": ["compound", "IC50 / µM"],
 "data": [
  ["Brc1ccc2c(-c3csc(-c4c[nH]c5c(Br)cccc45)n3)c[nH]c2c1 [Compound 32-134D]", 3.5]
]}
